# Assayed system: human CB1 receptors (Homo sapiens (Human))
# Sequence (P21554 whole entry): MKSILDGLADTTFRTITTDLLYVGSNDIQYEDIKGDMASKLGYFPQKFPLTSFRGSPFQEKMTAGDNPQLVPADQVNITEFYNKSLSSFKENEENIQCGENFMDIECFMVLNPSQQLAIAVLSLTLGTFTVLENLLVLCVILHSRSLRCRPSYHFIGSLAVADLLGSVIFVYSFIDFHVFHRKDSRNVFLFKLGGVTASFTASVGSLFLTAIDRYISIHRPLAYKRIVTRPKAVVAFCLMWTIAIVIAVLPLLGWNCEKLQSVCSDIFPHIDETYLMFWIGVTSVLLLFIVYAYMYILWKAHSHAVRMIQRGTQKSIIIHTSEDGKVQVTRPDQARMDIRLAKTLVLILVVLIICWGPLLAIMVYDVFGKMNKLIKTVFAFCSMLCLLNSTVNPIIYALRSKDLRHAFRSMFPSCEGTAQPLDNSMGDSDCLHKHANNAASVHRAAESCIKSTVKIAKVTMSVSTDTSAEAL
# Assay overview: functional cAMP assay, CHO cells expressing human CB1
# Format: cell-based
# Condition: functional cAMP assay, CHO cells expressing human CB1; read-out: Human CB1 EC50
# Experimental: CHO cells expressing human CB1 or CB2 receptors are seeded 17-24 hours prior to the experiment 50.000 cells per well in a black 96 well plate with flat clear bottom (Corning Costar #3904) in DMEM (Invitrogen No. 31331), 1×HT supplement, with 10% fetal calf serum and incubated at 5% CO2 and 37° C. in a humidified incubator. […] The time-resolved energy transfer is measured by a TRF reader (Evotec Technologies GmbH), equipped with a ND:YAG laser as excitation source. […]
pEC50: −log10 of the molar value.
Recorded metric: pEC50

Compound	Result
Cc1nc(C(C)(CC2CC2)NC(=O)c2cc(O[C@@H](C)C(F)(F)F)c(C3(F)COC3)cn2)no1 (some centres unmarked) [Example 170]	< 5.00
C[C@H](Oc1cc(C(=O)NC(c2noc(N)n2)C(C)(C)C)ncc1C1CC1)C(F)(F)F (some centres unmarked) [Example 213]	< 5.00
CN(C(=O)c1cc(-c2cccc(Cl)c2)ccn1)C(C)(C)C [Example 86]	< 5.00
CC(C)(C)C(NC(=O)c1cc(OCC(F)(F)F)c(C2CC2)cn1)C(N)=O (centres unmarked) [Example 194]	< 5.00
Cc1nc(C(C)(CC2CC2)NC(=O)c2cc(O[C@@H](C)C(F)(F)F)c(C3CCC3)cn2)no1 (some centres unmarked) [Example 110]	6.51
CC(CC1CC1)(NC(=O)c1cc(OCC(F)(F)F)c(C2CC2)cn1)C(N)=O (centres unmarked) [Example 186]	< 5.00
CNC(=O)CC1(NC(=O)c2cc(OCC(F)(F)F)c(C3CC3)cn2)COC1 [Example 231]	< 5.00
CC(C)C[C@H](NC(=O)c1cc(-c2cccc(Cl)c2)c(Cl)cn1)C(N)=O [Example 3]	< 5.00
CC(C)(C)C(NC(=O)c1cc(OCC2CC2)c(C2CC2)cn1)c1nccs1 (centres unmarked) [Example 43]	< 5.00
O=C(NC(c1ccccn1)C(F)(F)F)c1cc(OCC(F)(F)F)c(C2CC2)cn1 (centres unmarked) [Example 51]	< 5.00
CC(C)(C)C(NC(=O)c1cc(OCC(F)(F)F)c(C2CC2)cn1)c1nccs1 (centres unmarked) [Example 50]	< 5.00
CC(CC(N)=O)(NC(=O)c1cc(OCC(F)(F)F)c(C2CC2)cn1)C1CC1 (centres unmarked) [Example 230]	< 5.00
O=C(N[C@@H](c1cccnc1)C(F)(F)F)c1cc(Cc2ccc(F)cc2)c(Cl)cn1 [Example 41]	6.84
O=C(NCC1(O)CCCCC1)c1cc(OCC2CC2)c(Cl)cn1 [Example 5]	< 5.00
O=C(N[C@H](c1ccccn1)C(F)(F)F)c1cc(OCC2CC2)c(Cl)cn1 [Example 16]	6.09
CNC(=O)CC1(NC(=O)c2cc(OCC(F)(F)F)c(C3(F)CCC3)cn2)CS(=O)(=O)C1 [Example 285]	< 5.00
O=C(NCC1(O)CCCC1)c1cc(OCC2CC2)c(C2CC2)cn1 [Example 56]	< 5.00
